# System: SGK
# experimental context: concentration: 1 μM, replicates: in singlicate; n = 1;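 also: KINOMEscan kinase panel screen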
reported metric: %Inh

1. Cc1nnc(-c2ccc(C)c(-c3ccc(C(=O)Nc4ccc(NS(C)(=O)=O)cc4)cc3)c2)o1 2%
2. O=C(c1ccc(-c2cc(-c3c[nH]nc3-c3ccccn3)ccn2)cc1)N1CCOCC1 2%
3. Cc1cccc(Cn2ccn3c(=O)cc(N4CCOCC4)nc23)c1 0%
4. COc1ccc(Nc2ncc(C#N)c(Nc3ccccc3C(N)=O)n2)cc1N1CCN(C)CC1.Cl 87%
5. O=c1cc(N2CCOCC2)nc2n(Cc3cccc4ccccc34)ccn12 0%
6. O=C(Nc1n[nH]c2cc(-c3cccc(F)c3)ccc12)C1CC1 13%
7. COc1ccc(COc2cc(-n3cnc4ccccc43)sc2C(N)=O)cc1 0%
8. CCCCCc1nc2c(N)ncnc2n1CCCCC 0%
9. CCc1ccnc(/C=C/c2n[nH]c3cc(Sc4ccccc4C(=O)NC)ccc23)c1 0%

====

# %Inh values compiled below
# Test system: PDGFRA
# experimental context: concentration: 1 μM, replicates: in singlicate; n = 1

compound	%Inh [%]
Fc1ccc(-c2ncn(CCCN3CCOCC3)c2-c2ccccn2)cc1 [SB-211742]	0
COC(=O)Nc1nc2cc(Oc3ccc(NC(=O)Nc4cc(F)ccc4F)cc3)ccc2[nH]1.Cl [GW701424]	98.9
Cc1ccc(NC(=O)c2ccnc(N3CCN(C)CC3)c2)cc1-c1ccc(C(=O)NCC2CC2)cc1 [GW775604]	0
COCCNC(=O)c1ccc(-c2cc(C(=O)NC3CC3)cc(F)c2C)cc1 [GW868318]	32
NCC(NC(=O)c1cc(-c2cn[nH]c2)c(-c2ccnc3[nH]ccc23)s1)c1ccccc1.O=C(O)C(F)(F)F.O=C(O)C(F)(F)F (stereo not drawn) [GSK1325775]	26
O=C(NOCC1CC1)c1ccc(F)c(F)c1Nc1ccc(I)cc1Cl	0
CN1c2ccc(CNc3ccc(F)cc3)cc2-c2c(cnn2C)S1(=O)=O	0
COc1ccc(Nc2ncc(C#N)c(Nc3ccccc3C(N)=O)n2)cc1N1CCN(C)CC1.Cl [GSK1558669]	97.9
CCn1cnc2c(N)ncnc21 [GW345098]	0
COc1ccc(S(=O)(=O)NC2CCN(c3cc(C)nc(Nc4cccc(C#N)c4)n3)CC2)cc1.O=C(O)C(F)(F)F [GSK1653539]	0
Cn1ccc2ncnc(Oc3ccc(NC(=O)Nc4ccncc4)c(Cl)c3)c21	27
COc1ccc(Nc2nccc(N3CCC(NC(=O)Nc4cccc(C(C)=O)c4)C3)n2)cc1 (stereo not drawn) [GSK1379731]	0
CN(C1=C(c2ccccc2)C(=O)NC1=O)c1ccccc1 [SB-334860]	0
CC(C)(C)n1cnc2c(N)ncnc21 [SKF-97359]	0
CCc1nc(-c2cccc(C)c2)c(-c2ccnc(NCc3ccccc3)c2)s1	30
Cc1ccc(C(=O)NCC(N)=O)cc1-n1c(C)cc(OCc2ccc(F)cc2F)c(Br)c1=O	0
Cn1cc(-c2ccc3c(c2)CCN3C(=O)Cc2ccccc2Cl)c2c(N)ncnc21 [GSK2608885]	78
COc1ccc(Nc2nccc(N3CCC(NC(=O)Nc4cc(C)ccc4C)C3)n2)cc1 (stereo not drawn) [GSK1379741]	0

====

# Test system: SRPK3
# experimental context: concentration: 1 μM, replicates: in singlicate; n = 1
Readings of %Inh for the listed compounds
reported metric: %Inh (%)

compound	reported metric	readout unit	reading
Cc1c(Cn2c(C)nn3c(=O)cc(N4CCOC(C)C4)nc23)cccc1C(F)(F)F (centres unmarked)	%Inh	%	0
COc1ccc(Nc2nccc(N3CCC(NC(=O)Nc4cccc(C(C)=O)c4)C3)n2)cc1 (centres unmarked)	%Inh	%	0
Cc1nnc(-c2ccc(C)c(-c3ccc(C(=O)Nc4ccc(NS(C)(=O)=O)cc4)cc3)c2)o1	%Inh	%	3
COc1cc(Nc2nccc(N3CCC(NC(=O)c4cccc(NC(C)=O)c4)C3)n2)cc(OC)c1OC (centres unmarked)	%Inh	%	16
O=C(Nc1cccc(-c2nn3ncccc3c2-c2ccnc(Nc3cccc(C(F)(F)F)c3)n2)c1)c1c(F)cccc1F	%Inh	%	0
Cc1cccc(Cn2ccn3c(=O)cc(N4CCOCC4)nc23)c1	%Inh	%	0
Fc1ccc(-c2nn3c(OCC(F)(F)F)cccc3c2-c2ccncc2)cc1	%Inh	%	0
COc1ccc(Nc2nccc(N3CCC(NC(=O)Nc4cc(C)ccc4C)C3)n2)cc1 (centres unmarked)	%Inh	%	0
